Recorded activity, negative = inhibition by entry
Target: Cytochrome P450 1A2 (Homo sapiens)
Assay: Cytochrome panel assay with activity outcomes; also: % is scaled to controls: 0 for no effect and ±100 for the full control effect
Details: recombinant CYP, pro-luciferin dealkylation, luminescence, p450-cyp1a2; series mostly up to 57.1 µM
Procedure: The P450 gene superfamily is involved in the metabolism and clearance of xenobiotics. This assay used various human CYP P450 isozymes to measure the dealkylation of various pro-luciferin substrates to luciferin. The luciferin is then measured by luminescence after the addition of a luciferase detection reagent. […] Inhibitors and some substrates limit the production of luciferin, and decrease measured luminescence. […] 8, Detection, 1 sec, ViewLux luminescent read […]
Screen size: about 16,000 compounds; about 5,700 (36%) were called active. Roughly 24% stayed inconclusive and do not appear here. This is one part of the list.

entry.smiles: O=C(N/N=C1/C[C@@H](O)[C@@H](O)[C@@H]2[C@@H]3C(=O)N(Cc4ccccc4)C(=O)[C@H]3CC[C@@H]12)OCc1ccccc1
activity, negative = inhibition: -5.8% [at 11.4 µM] (inactive)

entry.smiles: C[C@@]12C[C@H](O)[C@@H]3[C@H](CCC4=CC(=O)CC[C@]43C)[C@H]1CC[C@@H]2c1csc(N)n1
activity, negative = inhibition: -9.78% [at 2.29 µM] (inactive)

entry.smiles: C[C@H](C(=O)c1ccccc1)[C@@H](c1ccccc1)N1CCOCC1
activity, negative = inhibition: -14.9% [at 11.4 µM] (inactive)

entry.smiles: COc1ccc(-c2nc(N)c3ncn([C@H]4O[C@@H](CO)[C@@H](O)[C@@H]4O)c3n2)cc1
activity, negative = inhibition: -13% [at 2.29 µM] (inactive)

entry.smiles: CCOC(=O)CCN1C(=O)[C@H]2[C@H]3[C@H](O)[C@H](O)C/C(=N/OCC(C)C)[C@H]3CC[C@@H]2C1=O
activity, negative = inhibition: -11.8% [at 11.4 µM] (inactive)

entry.smiles: Cn1c(=O)c2[nH]c(CSCc3ccccc3)nc2n(C)c1=O
activity, negative = inhibition: -15.4% [at 2.29 µM] (inactive)

entry.smiles: CCn1c(CCCc2nc3c([nH]2)c(=O)n(C)c(=O)n3C)nc2c1c(=O)n(C)c(=O)n2C
activity, negative = inhibition: -16.7% [at 2.29 µM] (inactive)

entry.smiles: O=C(O)c1cccc(CN2CCCCC2)c1
activity, negative = inhibition: -16.7% [at 11.4 µM] (inactive)

entry.smiles: O=C(O)C1(Nc2ccc(Cl)cc2)CCCC1
activity, negative = inhibition: -2.69% [at 11.4 µM] (inactive)
